What follows is literature data on IC50 for Xanthine dehydrogenase/oxidase (Bos taurus, UniProt P80457).
Respond numerically; units are µM and should not be typed.

Use these answered entries as a reference point.
COC(=O)C1=C(C)Oc2ccc3ccccc3c2C1c1ccc[nH]1 (stereo not given)
6.23
CCOC(=O)C1=C(C)Oc2ccc3ccccc3c2C1c1ccccc1 (stereo not given)
44.4
Cc1nc(-c2ccc(OCC(C)C)c([N+](=O)[O-])c2)sc1C(=O)O
0.0334
CC(=O)Nc1cccc(C(=O)CC(NC(C)=O)c2cccc([N+](=O)[O-])c2)c1 (stereo not given)
32

Request: Provide IC50, tested on Xanthine dehydrogenase/oxidase (Bos taurus, UniProt P80457), for `COC(=O)/C=C/c1ccc(O)c2oc(-c3ccc(O)c(O)c3)cc12` .
Sequence (P80457 whole entry): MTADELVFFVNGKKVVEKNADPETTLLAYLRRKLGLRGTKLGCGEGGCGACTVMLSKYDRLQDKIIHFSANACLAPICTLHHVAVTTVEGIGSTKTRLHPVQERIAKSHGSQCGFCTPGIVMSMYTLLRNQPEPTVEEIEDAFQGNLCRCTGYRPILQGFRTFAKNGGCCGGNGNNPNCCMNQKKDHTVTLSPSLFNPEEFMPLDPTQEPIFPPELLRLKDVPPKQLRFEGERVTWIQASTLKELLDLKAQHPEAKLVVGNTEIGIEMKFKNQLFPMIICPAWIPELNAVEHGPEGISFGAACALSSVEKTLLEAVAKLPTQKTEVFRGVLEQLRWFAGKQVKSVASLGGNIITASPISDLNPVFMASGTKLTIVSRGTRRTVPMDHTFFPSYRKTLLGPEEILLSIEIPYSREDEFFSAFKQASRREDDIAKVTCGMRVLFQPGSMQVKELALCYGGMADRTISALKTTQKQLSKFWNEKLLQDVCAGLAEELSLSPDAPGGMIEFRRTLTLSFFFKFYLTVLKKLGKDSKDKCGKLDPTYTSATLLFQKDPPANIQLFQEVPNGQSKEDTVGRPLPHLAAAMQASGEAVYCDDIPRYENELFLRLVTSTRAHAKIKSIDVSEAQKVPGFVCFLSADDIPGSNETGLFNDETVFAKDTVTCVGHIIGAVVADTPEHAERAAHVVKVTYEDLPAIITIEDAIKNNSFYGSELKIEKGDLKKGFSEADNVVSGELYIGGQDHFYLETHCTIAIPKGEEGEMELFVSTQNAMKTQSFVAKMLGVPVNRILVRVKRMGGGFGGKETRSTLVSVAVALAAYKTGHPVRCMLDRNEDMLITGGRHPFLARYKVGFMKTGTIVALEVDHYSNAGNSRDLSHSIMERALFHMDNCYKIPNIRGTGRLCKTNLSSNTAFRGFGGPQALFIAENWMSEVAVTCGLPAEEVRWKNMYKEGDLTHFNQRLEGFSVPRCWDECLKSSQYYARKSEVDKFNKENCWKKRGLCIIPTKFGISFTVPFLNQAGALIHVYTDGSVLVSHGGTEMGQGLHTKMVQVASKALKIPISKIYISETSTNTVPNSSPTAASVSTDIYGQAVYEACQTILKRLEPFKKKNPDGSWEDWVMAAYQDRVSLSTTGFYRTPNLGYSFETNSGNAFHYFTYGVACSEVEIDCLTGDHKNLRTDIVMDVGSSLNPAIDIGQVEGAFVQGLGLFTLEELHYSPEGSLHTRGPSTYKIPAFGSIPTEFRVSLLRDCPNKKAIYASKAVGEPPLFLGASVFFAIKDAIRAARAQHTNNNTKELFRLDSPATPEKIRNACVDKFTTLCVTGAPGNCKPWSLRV
Response: 6.55

====

IC50 for Xanthine dehydrogenase/oxidase (Bos taurus, UniProt P80457) - collated from the literature.
Lab note - cut at 4 µM for IC50: Y if strictly below, N if not.

Below are worked cases with known answers.
CC(=O)NC(CC(=O)c1ccccc1)c1ccccc1[N+](=O)[O-] (stereo not given)
N
CC(=O)NC(CC(=O)c1ccccc1)c1ccc([N+](=O)[O-])cc1 (stereo not given)
N
O=C(/C=C/c1ccc(O)c2oc(-c3ccc(O)c(O)c3)cc12)Nc1ccc(F)cc1
N
CC(=O)NC(CC(=O)c1ccc2ccccc2c1)c1cccc(Br)c1 (stereo not given)
Y

Request: Hello, I'm reviewing records and need to know if IC50 of `CC(=O)OCC1=CC[C@@H]2C(C(=O)Nn3ncc4ccccc43)=CO[C@@H](O[C@@H]3O[C@H](COC(C)=O)[C@@H](OC(C)=O)[C@H](OC(C)=O)[C@H]3OC(C)=O)[C@H]12` is below 4 µM. Could you check?
Response: N

Request: Strictly below 4 µM: is that where IC50 of `COc1ccccc1COc1ccc(NC(=O)c2ccncc2)cc1C#N` sits?
Response: Y

====

Across several publications, the following pIC50 results were reported for Xanthine dehydrogenase/oxidase (Bos taurus).
The meaning of pIC50 here: minus log10 of the concentration in molar units.

Answered cases to consult:
C=CCNC(=O)/C=C/c1ccc(O)c2oc(-c3ccc(O)c(O)c3)cc12
4.74
N#Cc1cc(-c2ncccn2)ccc1OCc1ccccc1
5.71
Cn1c2ccccc2c2cc(/C=C/C(=O)c3cccc(N)c3)ccc21
4.31
COc1ccc(Nc2ncnc3c2C(c2ccc(OC)c(OC)c2)c2c(c(=O)oc4ccccc24)O3)cc1 (stereo not drawn)
4.77

Request: // fetch pIC50; item: `CCCCn1cc(COc2ccccc2C=O)nn1` ; system: Xanthine dehydrogenase/oxidase (Bos taurus)
Response: 4.87

Request: Fetch value of pIC50 on Xanthine dehydrogenase/oxidase (Bos taurus) for `Oc1cc(O)n2ncc(-c3ccc4c(c3)OCO4)c2n1` .
Response: 7.54

Request: Send back Xanthine dehydrogenase/oxidase (Bos taurus) pIC50 of COc1ccc(Nc2ncnc3c2C(c2ccc([N+](=O)[O-])cc2)C2=C(CCCC2=O)O3)cc1 (stereo not drawn) only.
Response: 4.17

====

Multi-source literature compilation: pIC50 on Xanthine dehydrogenase/oxidase (Bos taurus, UniProt P80457).
Please report pIC50 as the negative decimal logarithm of the molar concentration, giving only the number.

The examples below pair each entry with its known result.
C=C(C)COc1ccc(-c2ncc(C(=O)O)c(=N)[nH]2)cc1C#N
7.74
CC(=O)NC(CC(=O)c1ccc([N+](=O)[O-])cc1)c1ccc(Cl)cc1 (stereo unspecified)
4.34
O=C(/C=C/c1ccccc1O)c1ccccc1O
4.06
CC(=O)NC(CC(=O)c1ccccc1)c1cccs1 (stereo unspecified)
4.19

Request: Enter recorded pIC50 with Xanthine dehydrogenase/oxidase (Bos taurus, UniProt P80457) for `CNC(=O)/C=C/c1ccc(O)c2oc(-c3ccc(O)c(O)c3)cc12` here.
Response: 5.35

Request: State, for Xanthine dehydrogenase/oxidase (Bos taurus, UniProt P80457), measured pIC50 of the compound listed here: `COCCOCCOc1ccc(-c2nc(-c3ccnc(C)c3)n[nH]2)cc1C#N`
Response: 7.51

Request: Answer briefly: pIC50 recorded on Xanthine dehydrogenase/oxidase (Bos taurus, UniProt P80457) for `COc1ccc(-c2cc(O)nc(N)n2)cc1C#N`
Response: 6.80

Request: Report its pIC50 with Xanthine dehydrogenase/oxidase (Bos taurus, UniProt P80457) as the test system: `COCCOCOc1ccc(-c2nc(-c3ccnc(C)c3)n[nH]2)cc1C#N`
Response: 7.62

====

Literature pIC50 values, system: Xanthine dehydrogenase/oxidase (Bos taurus, UniProt P80457).
pIC50: −log10 of the molar value.
Response field class: enum, chosen by comparing pIC50 against low value (below 5), medium value (5 to below 6), high value (6 or more)

Field: example entries. Status: answers known.
CC(C)=CCOc1ccc(-c2ncc(C(=O)O)c(=O)[nH]2)cc1C#N
high value
Cn1c2ccccc2c2cc(/C=C/C(=O)c3cccc(NC(=O)c4cccc(C(F)(F)F)c4)c3)ccc21
medium value
N#Cc1cn(Cc2cccc(Br)c2)c2ccc(-c3noc(=O)[nH]3)cc12
medium value
COc1ccc(Nc2ncnc3c2C(c2cccc(O)c2)c2c(c(=O)oc4ccccc24)O3)cc1 (configuration not stated)
low value

Request: Hello team, could you let me know which band the following compound falls into: CCC(C)Oc1ccc(NC(=O)c2ccncc2)cc1C#N (configuration not stated)
Response: medium value

Request: Looking at `COc1ccccc1Cn1cc(COc2cc(F)ccc2C=O)nn1` , which class would you pick?
Response: medium value

Request: Assign a bin to COc1cc(C(CC(=O)c2ccccc2)NC(C)=O)cc(OC)c1OC (configuration not stated)
Response: low value

Request: Field: class (pIC50) — entry: `O=c1cc(-c2ccccc2Br)oc2ccc3ccccc3c12`
Response: low value

Request: Bin? `O=C(CCc1ccc(O)c2oc(-c3ccc(O)c(O)c3)cc12)N1CCOCC1`
Response: low value

Request: // return the class label for `O=c1cc(-c2ccccc2F)oc2ccc3ccccc3c12`
Response: low value

Request: Band of `N#Cc1cc(-c2nccc(O)n2)ccc1OCc1ccc(Br)cc1` ?
Response: high value

Request: Which category does the recorded pIC50 put `Cc1cccc(-c2cnn3c(O)cc(O)nc23)c1` in?
Response: high value

Request: Into which category would you place `CN(C)c1ccc(-n2cc(C(=O)O)cn2)cc1C#N` ?
Response: high value

Request: // return the class label for `Cc1ccc(OCc2nn3c(=O)cc(C)nc3s2)c(C)c1`
Response: medium value

====

// cross-study collection: IC50 for Xanthine dehydrogenase/oxidase (Bos taurus)
# output: bare number, implied unit nM

Before answering, review these 4 worked examples.
COC(=O)C1=C(C)Oc2ccc3ccccc3c2C1c1ccc(OC)cc1 (stereo unspecified)
36500
CC(C)COc1ccc(-c2cc(C(=O)O)no2)cc1[N+](=O)[O-]
1000
COc1c(O)cc(O)c2c(=O)cc(-c3ccccc3)oc12
176000
COc1ccc(Nc2ncnc3c2C(c2ccc(OC)cc2)C2=C(CCCC2=O)O3)cc1 (stereo unspecified)
25000

Request: Given `Cc1cc(-c2n[nH]c(-c3ccnc(-c4ccccc4)c3)n2)ccn1` , respond with its IC50.
Response: 59

Request: Input `N#Cc1cc(-n2cnc(C(=O)O)c2)ccc1N1CCCC1` , output reported IC50.
Response: 34.1

Request: Identify the reported IC50 for the following entry. `CC(C)(C)c1ccc(Cn2cc(C#N)c3cc(-c4noc(=O)[nH]4)ccc32)cc1`
Response: 1440

Request: Return IC50 for the following compound: `N#Cc1cc(-n2cnc(C(=O)O)c2)ccc1OC1CCCC1`
Response: 63

Request: Return IC50 for the following compound: `CC(C)Oc1ccc(-c2nc(-c3ccncc3)cn2O)cc1C#N`
Response: 4750

Request: Annotate the compound `CCCCCCn1cc(COc2ccc(F)cc2C=O)nn1` with its measured IC50.
Response: 9000

====

Target or system Xanthine dehydrogenase/oxidase (Bos taurus); metric log10 of IC50; compiled from varied reports.
The figures below represent log10 of IC50, where IC50 is stated in nM.

CC(C)n1cc(C#N)c2ccc(-c3noc(=O)[nH]3)cc21
3.26

Request: Name the recorded log10 of IC50 of the item `COc1ccc(-c2n[nH]c(-c3ccncc3)n2)cc1[N+](=O)[O-]` in your answer.
Response: 0.52

Request: Please indicate log10 of IC50 recorded for `Cc1ccc(COc2ccc(-c3nc(C)c(C(=O)O)n3O)cc2C#N)cc1`
Response: 2.04

Request: State its log10 of IC50: `COc1ccc(-c2nc(C)c(C(=O)O)n2O)cc1C#N`
Response: 2.74

Request: Note log10 of IC50 for the molecule shown: `N#Cc1cc(-n2cc(C(=O)O)cn2)ccc1N1CCCCC1`
Response: 0.62

Request: Indicate the recorded log10 of IC50 value for this molecule: `N#Cc1cc(-c2nccc(O)n2)ccc1OCc1ccccc1`
Response: 1.82

Request: Please give measured log10 of IC50 of the following entry: `Cc1cc(=O)n2nc(COc3ccc([N+](=O)[O-])cc3)sc2n1`
Response: 3.40

Request: Dear colleague, please send me the reported log10 of IC50 for `O=c1cc(-c2ccc(Br)cc2)oc2c1ccc1ccccc12` when you can.
Response: 3.95

Request: Tell us which log10 of IC50 value is on record for COc1ccc(Nc2ncnc3c2C(c2cccc(Cl)c2)c2c(c(=O)oc4ccccc24)O3)cc1 (stereo not given)
Response: 4.73

Request: # return recorded log10 of IC50 for input `CC(=O)OCC1=CC[C@@H]2C(C(=O)O)=CO[C@@H](O[C@@H]3O[C@H](COC(C)=O)[C@@H](OC(C)=O)[C@H](OC(C)=O)[C@H]3OC(C)=O)[C@H]12`
Response: 4.55

Request: Tell me log10 of IC50 reported for CC(=O)NC(CC(=O)c1cc(C)sc1C)c1ccc(Cl)cc1 (stereo not given)
Response: 4.34

Request: Retrieve log10 of IC50 measured for `Cc1ccc(COc2cc(O)cc3oc4cc(O)c(O)cc4c(=O)c23)cc1` and print it.
Response: 3.76

Request: Return log10 of IC50 (reported value) for this molecule: COc1ccc(Nc2ncnc3c2C(c2ccc(O)c(OC)c2)C2=C(CCCC2=O)O3)cc1 (stereo not given)
Response: 3.85

Request: Please look at this molecule and report its log10 of IC50: `N#Cc1cc(-c2ccnc(N)n2)ccc1OCc1ccccc1C(F)(F)F`
Response: 1.78

Request: For the molecule `CC(C)Oc1ccc(-c2nccc(O)n2)cc1C#N` , give its reported log10 of IC50.
Response: 1.87

Request: Give a short answer stating reported log10 of IC50 for `CC(=O)OCC1=CC[C@@H]2C(C(=O)Nc3cncc4ccccc34)=CO[C@@H](O[C@@H]3O[C@H](COC(C)=O)[C@@H](OC(C)=O)[C@H](OC(C)=O)[C@H]3OC(C)=O)[C@H]12` .
Response: 4.27

Request: Output log10 of IC50 of `O=C(O)C1=CO[C@@H](O[C@@H]2O[C@H](CO)[C@@H](O)[C@H](O)[C@H]2O)[C@@H]2C(CO)=CC[C@H]12`
Response: 4.79

Request: For the molecule `O=c1c2cc(O)c(O)cc2oc2cc(O)cc(OCc3ccc(Br)cc3)c12` , give its reported log10 of IC50.
Response: 4.30

Request: Identify log10 of IC50 associated with the molecule `Cc1cc(-c2nc(-c3ccc(Cl)c([N+](=O)[O-])c3)n[nH]2)ccn1`
Response: 1.48
